Target: Heat shock factor protein 1 (Mus musculus)
Sequence (P38532 whole entry): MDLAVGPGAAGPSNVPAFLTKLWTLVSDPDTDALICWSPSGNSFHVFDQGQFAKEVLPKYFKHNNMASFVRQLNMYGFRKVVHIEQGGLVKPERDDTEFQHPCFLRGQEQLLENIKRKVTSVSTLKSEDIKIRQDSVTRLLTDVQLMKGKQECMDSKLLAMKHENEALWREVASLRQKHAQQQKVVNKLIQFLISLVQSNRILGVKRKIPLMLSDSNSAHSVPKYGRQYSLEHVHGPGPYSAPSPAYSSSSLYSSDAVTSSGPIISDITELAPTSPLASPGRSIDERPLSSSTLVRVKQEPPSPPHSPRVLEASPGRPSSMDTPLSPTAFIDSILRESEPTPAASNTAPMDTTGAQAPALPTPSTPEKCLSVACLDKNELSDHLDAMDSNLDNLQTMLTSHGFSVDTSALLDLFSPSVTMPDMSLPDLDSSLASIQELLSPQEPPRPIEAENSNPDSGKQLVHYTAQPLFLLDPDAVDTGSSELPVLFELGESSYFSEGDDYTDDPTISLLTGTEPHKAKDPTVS
Experiment: enhancement of HSF1-driven luciferase signal – cell-based, NIH3T3, luminescence, dose retest, confirmation (AID 435004);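 further: stress induced by proteasome inhibitor MG132 added 30 min after compound; luciferase reporter driven by HSF1 response element in NIH3T3 cells; actives raise luminescence as potentiators of the MG132 stress response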
Assay type: functional
Activity calls are given as the source filed them.
Log the outcome using a class from active, inactive

Worked examples follow.
> print(dat)
                                   molecule     label
1           Nc1nc(CCl)nc(Nc2ccc3ccccc3c2)n1  inactive
2      COc1ccc(C(=O)n2nc(C)cc2Nc2ccccc2)cc1    active
3                 CN(C)CCCCNCCCNC(=O)/C=N\O  inactive
4         CCS(=O)(=O)C(=C1NCCO1)S(=O)(=O)CC  inactive
5  COc1ccc(NC2=NC(=O)/C(=C\C=C\c3ccco3)S2)cc1  inactive

Test call for this molecule, please: `C(=N\N1CCN(Cc2cccc3ccccc23)CC1)/c1cccnc1`
inactive

How was `Cc1cnn(-c2cc(N/N=C/c3cccc(F)c3)ncn2)c1` classified in this test?
inactive

Dear all, I need the recorded test outcome for COC(=O)CN1C(c2cccc(Cl)c2)=Nc2ccc(Cl)cc2C1c1ccccc1 (stereo unspecified) , thank you.
inactive

Hi, sorry to bother you, what did the test record for COC(=O)C(NNc1ccccc1C)(NC(=O)c1ccc(F)cc1)C(F)(F)F (stereo unspecified) ?
inactive

Call for entry `Cc1csc(-c2cnn(-c3ccccc3)c2NC(=O)c2cccc(C(F)(F)F)c2)n1` :
inactive

Entry `CCN(CCCNC(=O)CNC(=O)c1nn(-c2ccc(OC)cc2OC)c(=O)c2ccccc12)c1cccc(C)c1` : call = ?
inactive

----------
Molecular target: UniProt:Q63470
Format: biochemical, Homo sapiens
The source made the active and inactive calls.
endpoint: AC50

Take a look at these entries with their results.
> print(dat)
                               chem.smiles            result
1      O=C1C(/C=N/Cc2ccncc2)=C(O)c2ccccc21  7.11 µM (active)
2     N=c1oc2cc(O)ccc2cc1C(=O)Nc1ccc(F)cc1  14.5 µM (active)
3  O=c1c(O)c(-c2ccc(O)cc2)oc2cc(O)cc(O)c12  1.26 µM (active)

If you can, please state the reported AC50 value of `COc1ccc2c(c1)CCc1c[nH]nc1-2` .
> 120 µM (inactive)

----------
Test system: H9c2;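 further: cell death induced by hydrogen peroxide oxidative stress; compound pretreatment for 60 min then peroxide exposure for 2 h; potency is for protecting the cells against peroxide damage rather than for killing them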;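 further: confirmatory concentration-response retest of ultra-high-throughput screening hits for modulation of myocardial damage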
Assay: cells
Type: functional, cell-based
Conditions: Rattus norvegicus, H9c2, Myocardium
Active and inactive are the calls of the source.
I would appreciate it if you answered using one of these outcomes: class 1 (active), class 0 (inactive)

Query: recorded result category for `CCN(Cc1ccccc1)C(=O)c1cc2c(=O)oc3ccc(C)cc3c2s1` in this test
class 0

Which outcome did this test record for the molecule `CC(C)(C)NC(=O)c1cccc(NC(=O)c2ccc(NC(=O)c3ccco3)cc2)c1` ?
class 0

Write down the call the test reported for this molecule. Item: `O=C(COc1ccccc1[N+](=O)[O-])Nc1ccc(N2CCN(C(=O)c3cccs3)CC2)cc1`
class 0

Name the outcome recorded for `Cn1c2ccccc2c(=O)c2ccc(NCc3ccc4c(c3)OCO4)cc21` in the assay.
class 1

----------
Would you kindly list AC50 for each of these molecules?
Target: Heat shock protein HSP 90-alpha (Homo sapiens, UniProt P07900)
Format: functional, organism-based
Calls of active or inactive are those of the source.

Please review the entries below; each comes with its answer.
> print(dat)
                                   molecule               result
1  CC(C)(C)C(O)C(Cc1ccccc1Cl)n1cncn1 (stereo unspecified)  < 0.195 µM (active)
2  O=c1c2ccccc2nc(-c2ccc(-c3ccccc3)cc2)n1-c1ccncc1     2.73 µM (active)
3          O=C(Oc1ccc(Cl)c2cccnc12)c1cccnc1     8.18 µM (active)
4  CCOC(=O)/C(=C\c1cccnc1)C(=O)c1cc(C(C)=O)c(Nc2ccccc2)s1     2.18 µM (active)
5  Clc1ccc(C(c2ccc(Cl)cc2)n2cc[n+](CC(OCc3ccc(Cl)cc3Cl)c3ccc(Cl)cc3Cl)c2)cc1 (stereo unspecified) [CALMIDAZOLIUM CHLORIDE]     7.07 µM (active)

Consider now this further molecule.
Returns the measured AC50 for the input molecule. Input: Oc1ccc(C2=NN(c3ccccc3)C(c3ccc(F)cc3)C2)cc1 (stereo unspecified)
4.34 µM (active)
